// provenance: patent US10144715B2

- target.or.system: Gal4 DNA binding domain fused to the LBD of LXRβ in HEK293 cells (Homo sapiens (Human))
- assay.protocol: cell-based
Items are presented alongside their recorded EC50.

# query: EC50 | item CC(C)[C@@H]1CN(c2ccc(F)c(S(C)(=O)=O)c2)CCN1c1ccnc(OC(F)F)c1 | system: Gal4 DNA binding domain fused to the LBD of LXRβ in HEK293 cells (Homo sapiens (Human)) 0.07 µM

What do you get for CCN(CCCO)C(=O)c1cnc(N2CCN(c3ccc(F)c(S(C)(=O)=O)c3)C[C@H]2C(C)C)nc1C(F)(F)F ? > 20 µM

What do you get for CC(C)[C@@H]1CN(c2ccc(F)c(S(C)(=O)=O)c2)CCN1c1ncc(C(=O)N2CC(NC(=O)OC(C)(C)C)C2)c(C(F)(F)F)n1 ? > 20 µM

What do you get for CC(C)[C@@H]1CN(c2ccc(F)c(S(C)(=O)=O)c2)CCN1c1ncc(C(=O)N(C)CCCO)c(C(F)(F)F)n1 ? > 20 µM

====

- target.or.system: Gal4 DNA binding domain fused to the LBD of LXRβ in HEK293 cells (Homo sapiens (Human), UniProt P55055)
- Sequence (P55055 222-460 limits assumed): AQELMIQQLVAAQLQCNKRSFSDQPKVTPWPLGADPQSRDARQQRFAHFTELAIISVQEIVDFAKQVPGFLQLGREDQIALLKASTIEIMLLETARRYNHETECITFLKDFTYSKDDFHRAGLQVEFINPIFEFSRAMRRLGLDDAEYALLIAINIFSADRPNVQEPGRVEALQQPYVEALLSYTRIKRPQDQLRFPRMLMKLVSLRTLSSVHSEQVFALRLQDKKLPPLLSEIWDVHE
- assay.protocol: cell-based
property.measured: EC50 (nM)
Answer in nM, number only, no unit symbol.

[[record]]
compound = "CC(C)[C@@H]1CN(c2ccc(F)c(S(C)(=O)=O)c2)CCN1c1nc2ccccc2s1"
observed_value = 99

[[record]]
compound = "Cc1csc(-c2ccc(N3CCN(c4ncc(CO)c(C(F)(F)F)n4)[C@H](C(C)C)C3)cc2S(C)(=O)=O)n1"
observed_value = 11

[[record]]
compound = "CO[C@H]1CC[C@@H](CN2CCN(c3ccc(CO)c(S(C)(=O)=O)c3)C[C@@H]2C(C)C)CC1 (single isomer, unassigned)"
observed_value = 42

[[record]]
compound = "Cc1nc(N2CCN(c3ccc(F)c(S(C)(=O)=O)c3)C[C@H]2C(C)C)ncc1Cl"
observed_value = 177


Consider the compound shown here: CC(C)[C@@H]1CN(c2ccc(F)c(S(C)(=O)=O)c2)CCN1c1ncc(C(F)(F)F)c(C(C)(C)O)n1 What is its recorded EC50? 86

What do you get for CS(=O)(=O)c1cccc(N2CCN(C[C@@H]3CCN(CC(F)(F)F)C3)[C@H](c3ccccc3)C2)c1 (single isomer, unassigned) ? 4680

What do you get for CS(=O)(=O)c1cccc(N2CCN(C[C@H]3CC[C@@H](C(F)(F)F)OC3)[C@@H](c3ccc(F)cc3)C2)c1 (single isomer, unassigned) ? 575

====

Items are presented alongside their recorded pKi.
- target.or.system: LXR α LBD protein (Homo sapiens (Human), UniProt Q13133)
- Sequence (Q13133 209-447): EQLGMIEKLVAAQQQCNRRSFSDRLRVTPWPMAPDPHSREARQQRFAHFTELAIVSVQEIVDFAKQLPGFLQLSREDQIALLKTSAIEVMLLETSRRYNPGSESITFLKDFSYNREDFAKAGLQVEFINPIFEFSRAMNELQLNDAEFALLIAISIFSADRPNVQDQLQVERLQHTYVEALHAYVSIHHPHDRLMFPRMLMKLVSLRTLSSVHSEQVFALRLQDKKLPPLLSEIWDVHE
- assay.protocol: LXR α radioligand binding assay (SPA, competition with [3H]TO901317)
- assay.context: read-out: LXRα Binding Ki
pKi here: minus log base 10 of the concentration, concentration in moles per litre.

[[record]]
compound = "CC(C)[C@@H]1CN(c2ccc(F)c(S(C)(=O)=O)c2)CCN1c1ncc(C(F)(F)F)c(C#N)n1"
observed_value = 7.59


Consider the compound shown here: CS(=O)(=O)c1cccc(N2CCN(CC3CCN(CC(F)(F)F)CC3)[C@@H](c3ccccc3Cl)C2)c1 (single isomer, unassigned) What is its recorded pKi? 6.56

What do you get for CC(C)[C@@H]1CN(c2ccc(F)c(S(C)(=O)=O)c2)CCN1c1cncc(C(F)(F)F)c1 ? 6.78

What do you get for CS(=O)(=O)c1cc(N2CCN(C[C@H]3CC[C@@H](C(F)(F)F)CC3)[C@@H](c3ccccc3Cl)C2)ccc1C(N)=O (single isomer, unassigned) ? 6.35

What do you get for CC(C)[C@@H]1CN(c2ccc(F)c(S(C)(=O)=O)c2)CCN1c1nc(C(F)(F)F)c(C(C)(C)O)o1 ? 5.66

What do you get for CC(C)[C@@H]1CN(c2ccc(-c3nc(C#N)cs3)c(S(C)(=O)=O)c2)CCN1c1ncc(CO)c(C(F)(F)F)n1 ? 6.71

What do you get for CC(C)[C@@H]1CN(c2ccc(F)c(S(C)(=O)=O)c2)CCN1c1ncc([C@@H](C)O)c(C(F)(F)F)n1 ? 6.77

What do you get for CC(C)(O)c1cc(CN2CCN(c3cccc(S(C)(=O)=O)c3)C[C@H]2c2ccccc2)ccc1C(F)(F)F ? 5.34

What do you get for CC(C)[C@@H]1CN(c2ccc(F)c(S(C)(=O)=O)c2)CCN1c1ncc(C(N)=O)c(C(F)(F)F)n1 ? 6.06

====

Items are presented alongside their recorded EC50.
- target.or.system: LXR α LBD protein (Homo sapiens (Human), UniProt Q13133)
- assay.protocol: Human LXRα coactivator recruitment FRET assay, agonist mode
- Format: biochemical
- assay.context: Biological Test Example 3, agonist mode
- Protocol: Two μL of the DMSO solutions were transferred to the plate and 38 μL of 10 nM LXRα-LBD or LXRβ-LBD (2×) were added immediately to the wells. […] The percent control vs. compound concentration data were fit into a four-parameter model, and EC50 values were calculated from the fit as the concentrations corresponding to the inflection points on the concentration-response curves.
Answer in µM, number only, no unit symbol.

In the examples that follow, each entry is paired with its recorded EC50.
[[record]]
compound = "CS(=O)(=O)c1cccc(N2CCN(C[C@@H]3CCN(CC(F)(F)F)C3)[C@@H](c3ccccc3)C2)c1 (single isomer, unassigned) [48-61]"
observed_value = 0.347

[[record]]
compound = "CS(=O)(=O)c1cccc(N2CCN(C[C@@H]3CCN(CC(F)(F)F)C3)[C@H](c3ccccc3)C2)c1 (single isomer, unassigned) [48-62]"
observed_value = 9.98


# query: EC50 | item CS(=O)(=O)c1cc(N2CCN(C[C@H]3CC[C@@H](C(F)(F)F)CC3)[C@@H](c3ccc(F)cc3)C2)ccc1F [48-48] | system: LXR α LBD protein (Homo sapiens (Human), UniProt Q13133) 1.32

What do you get for CS(=O)(=O)c1cccc(N2CCN(C[C@H]3CCN(CC(F)(F)F)C3)[C@H](c3ccccc3)C2)c1 (single isomer, unassigned) [48-60] ? 16.1

====

- target.or.system: LXR α LBD protein (Homo sapiens (Human), UniProt Q13133)
- assay.protocol: Human LXRα coactivator recruitment FRET assay, agonist mode
- Assay type: biochemical
- assay.context: agonist mode
Items are presented alongside their recorded pEC50.
pEC50 here: minus log base 10 of the concentration, concentration in moles per litre.

[[record]]
compound = "CC(C)[C@@H]1CN(c2ccc(F)c(S(C)(=O)=O)c2)CCN1C(=O)OC(C)(C)C"
target_or_system = "LXR α LBD protein (Homo sapiens (Human), UniProt Q13133)"
observed_value = 6.05

[[record]]
compound = "CS(=O)(=O)c1cccc(N2CCN(Cc3ccccc3)C(c3ccccc3)C2)c1 (centres unmarked)"
target_or_system = "LXR α LBD protein (Homo sapiens (Human), UniProt Q13133)"
observed_value = 6.06

[[record]]
compound = "CS(=O)(=O)c1cccc(N2CCN(Cc3ccc(OC(F)F)cc3)[C@H](c3ccccc3)C2)c1"
target_or_system = "LXR α LBD protein (Homo sapiens (Human), UniProt Q13133)"
observed_value = 4.39

[[record]]
compound = "CS(=O)(=O)c1cccc(N2CCN(C[C@H]3CC[C@@H](C(F)(F)F)CC3)[C@@H](c3ccccc3)C2)c1 (single isomer, unassigned)"
target_or_system = "LXR α LBD protein (Homo sapiens (Human), UniProt Q13133)"
observed_value = 6.40

[[record]]
compound = "CC(C)(C)OC(=O)N1CCN(c2cccc(S(C)(=O)=O)c2)C[C@@H]1c1ccccc1"
target_or_system = "LXR α LBD protein (Homo sapiens (Human), UniProt Q13133)"
observed_value = 5.08


Consider the compound shown here: C[C@]1(c2ccccc2)CN(c2cccc(S(C)(=O)=O)c2)CCN1Cc1ccc(C(F)(F)F)c(Cl)c1 (single isomer, unassigned) What is its recorded pEC50? 6.06

What do you get for NS(=O)(=O)c1cccc(N2CCN(C[C@H]3CC[C@@H](C(F)(F)F)CC3)[C@@H](c3ccccc3)C2)c1 (single isomer, unassigned) ? 6.38

What do you get for CC(C)[C@H]1CN(c2cccc(S(C)(=O)=O)c2)CCN1C(=O)OC(C)(C)C ? 4.63

What do you get for CC(C)[C@@H]1CN(c2ccc(C#N)c(S(C)(=O)=O)c2)CCN1c1ccc(C(F)(F)F)cn1 ? 5.58

What do you get for CS(=O)(=O)c1cccc(N2CCN(Cc3cccc(C(F)(F)F)c3)C(c3ccccc3)C2)c1 (centres unmarked) ? 5.72

What do you get for CC(C)[C@@H]1CN(c2cccc(S(C)(=O)=O)c2)CCN1c1ncc(Cl)cn1 ? 6.55

What do you get for CC(C)[C@@H]1CN(c2ccc(F)c(S(C)(=O)=O)c2)CCN1c1nccc(C2CC2)n1 ? 6.53

What do you get for Cc1ccccc1[C@@H]1CN(c2cccc(S(C)(=O)=O)c2)CCN1Cc1ccc(C(F)(F)F)nc1 (single isomer, unassigned) ? 5.18
